Ref: PubChem BioAssay AID330

Consider the following molecules; for each one, report its T/C.
System: P388 leukemia ip, CD2F1 mice, survival T/C
Experiment: NCI In Vivo Anticancer Drug Screen. Data for tumor model P388 Leukemia (intraperitoneal) in CD2F1 (CDF1) mice
Settings: endpoint: median survival time; dose: 25.0 mg/kg/injection; schedule: Q01DX009 (ip); vehicle: water; higher = longer survival
Protocol: The antitumor activity of compounds was measured in mice bearing transplantable tumors. Survival or tumor size were measured and the results are expressed as the measurement made in the treated group (T) divided by the measurement made in the vehicle treated control group (C). The tumor model used in this assay is P388 Leukemia (intraperitoneal) in CD2F1 (CDF1) mice
Toxic doses and inconclusive results are not listed.

Entry O=NCC(=O)OCc1ccccc1 ; T/C = 87 % of control

Notebook: COc1cc2ccc3cnccc3c2cc1OC , T/C read as 99 % of control

T/C in this record for COc1cc2c(cc1OC)/C(=N/N)CCC2 : 91 % of control

Entry under test: CCOC(=O)NNCC(=O)O . Its T/C was 105 % of control

T/C in this record for N#C[C@H](OC1OC(COC2OC(CO)C(O)C(O)C2O)C(O)C(O)C1O)c1ccccc1 (stereo not given in full) : 105 % of control

T/C in this record for COc1cccc(C(=O)c2ccncc2C)c1OC : 102 % of control

response.value for CC(=O)OCc1cc[n+](C)cc1 (field: T/C) = 105 % of control

The recorded T/C for entry COc1ccc2cc3cc[n+](C)cc3cc2c1OC equals 119 % of control

Reported T/C of COc1cc2c(cc1OC)C(N)CCC2 (stereo not given) : 99 % of control

According to the records, this molecule O=S(=O)(OI(O)c1ccccc1)c1ccc(Cl)cc1 displays T/C of 105 % of control

---

System: P388 leukemia ip, CD2F1 mice, survival T/C
Test: NCI In Vivo Anticancer Drug Screen. Data for tumor model P388 Leukemia (intraperitoneal) in CD2F1 (CDF1) mice
Conditions: endpoint: median survival time; dose: 100.0 mg/kg/injection; schedule: Q01DX009 (ip); vehicle: saline with Tween-80
Toxic doses and inconclusive results are not listed. Rule for the calls: active = survival T/C of 150% or more; inactive = T/C below 125% in these data.
Assign a class; possible classes are active, inactive

// query Fill in: this test's call for O=[N+]([O-])c1ccc(OCS(=O)(=O)c2ccc(Cl)cc2)cc1 is ___
// result inactive

// query # fetch the recorded call for Nc1c(Cl)cc(C(=O)O)cc1Cl here
// result inactive

// query Name the outcome recorded for CCOc1ccc(Nc2ccc(/C(=C3\C=CC(=[N+](CC)Cc4cccc(S(=O)(=O)O)c4)C=C3C)c3ccc(N(CC)Cc4cccc(S(=O)(=O)O)c4)cc3C)cc2)cc1 in the assay.
// result inactive

// query Please indicate how the test categorized Cc1ccccc1N1C(=O)CC2(CCCC2)C1=O .
// result inactive

// query Recorded test call requested for Cc1[nH]c(C(=O)NN)c(C)c1C(=O)NN
// result inactive

// query I'd appreciate the recorded outcome for O=C1OC2=CC=CC=CC2C12C1C=CC=CC12 (stereo not given) from this test.
// result inactive

// query How did this test come out for CCCCCCCCCCCCCCCC[As](CCCCCCCCCCCCCCCC)SCC1OC(OC(C)=O)C(OC(C)=O)C(OC(C)=O)C1OC(C)=O (stereo not given) ?
// result inactive

// query Field: outcome | Entry: OCCSc1c(Cl)c(Cl)c(Cl)c(Cl)c1Cl
// result inactive

// query Please let me know the test result on file for CC12C(=O)C=CCC1=CCC1C2CCC2(O)C(=O)OC3(C)C4CC5(C)C(COC16OC23C5C6=O)C(=O)O4 (stereo not given) .
// result inactive

// query Just curious, what result did CC(C)CC[NH-].CC(C)CC[NH-].[Cl][Pt+2]([Cl])([Cl])[Cl] get here?
// result active
